target: IKZF2 (Homo sapiens, UniProt Q96SW2+Q9UKS7); assay: HEK293 HiBiT in vitro degradation of IKZF2; type: cell-based; parameters: expressed in transfected cells; conditions: HEK293 HiBiT, 18-24 hr incubation, normalized to DMSO control; read-out: IKZF2 EC50
Sequence (Q9UKS7 1-500 isoform Q9UKS7-2): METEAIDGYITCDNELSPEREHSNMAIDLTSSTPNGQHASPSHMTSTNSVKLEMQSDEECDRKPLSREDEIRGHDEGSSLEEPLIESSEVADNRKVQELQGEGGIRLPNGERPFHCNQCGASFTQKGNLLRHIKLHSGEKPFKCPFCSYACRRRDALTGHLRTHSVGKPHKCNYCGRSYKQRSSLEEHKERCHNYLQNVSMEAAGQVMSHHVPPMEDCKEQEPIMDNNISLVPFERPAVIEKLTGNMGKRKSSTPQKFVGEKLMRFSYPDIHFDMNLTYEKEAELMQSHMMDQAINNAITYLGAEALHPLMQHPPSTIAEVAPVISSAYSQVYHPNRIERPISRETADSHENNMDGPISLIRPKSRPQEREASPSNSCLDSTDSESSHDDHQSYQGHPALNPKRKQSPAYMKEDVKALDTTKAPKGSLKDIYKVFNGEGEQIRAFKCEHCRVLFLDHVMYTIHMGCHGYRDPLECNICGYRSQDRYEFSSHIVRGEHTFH
Sequence (Q96SW2 whole entry): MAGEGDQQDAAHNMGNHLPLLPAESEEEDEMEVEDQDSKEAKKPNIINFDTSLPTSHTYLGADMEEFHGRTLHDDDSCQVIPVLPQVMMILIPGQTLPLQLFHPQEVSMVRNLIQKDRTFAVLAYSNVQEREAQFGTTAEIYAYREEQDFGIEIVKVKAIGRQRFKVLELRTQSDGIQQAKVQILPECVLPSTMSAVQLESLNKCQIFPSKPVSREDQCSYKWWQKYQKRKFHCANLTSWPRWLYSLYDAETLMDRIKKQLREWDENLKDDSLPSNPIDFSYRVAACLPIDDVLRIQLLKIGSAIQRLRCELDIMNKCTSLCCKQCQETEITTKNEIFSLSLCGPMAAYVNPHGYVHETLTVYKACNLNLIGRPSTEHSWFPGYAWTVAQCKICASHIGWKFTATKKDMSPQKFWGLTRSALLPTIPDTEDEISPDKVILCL
Sequence (Q16531 whole entry partner): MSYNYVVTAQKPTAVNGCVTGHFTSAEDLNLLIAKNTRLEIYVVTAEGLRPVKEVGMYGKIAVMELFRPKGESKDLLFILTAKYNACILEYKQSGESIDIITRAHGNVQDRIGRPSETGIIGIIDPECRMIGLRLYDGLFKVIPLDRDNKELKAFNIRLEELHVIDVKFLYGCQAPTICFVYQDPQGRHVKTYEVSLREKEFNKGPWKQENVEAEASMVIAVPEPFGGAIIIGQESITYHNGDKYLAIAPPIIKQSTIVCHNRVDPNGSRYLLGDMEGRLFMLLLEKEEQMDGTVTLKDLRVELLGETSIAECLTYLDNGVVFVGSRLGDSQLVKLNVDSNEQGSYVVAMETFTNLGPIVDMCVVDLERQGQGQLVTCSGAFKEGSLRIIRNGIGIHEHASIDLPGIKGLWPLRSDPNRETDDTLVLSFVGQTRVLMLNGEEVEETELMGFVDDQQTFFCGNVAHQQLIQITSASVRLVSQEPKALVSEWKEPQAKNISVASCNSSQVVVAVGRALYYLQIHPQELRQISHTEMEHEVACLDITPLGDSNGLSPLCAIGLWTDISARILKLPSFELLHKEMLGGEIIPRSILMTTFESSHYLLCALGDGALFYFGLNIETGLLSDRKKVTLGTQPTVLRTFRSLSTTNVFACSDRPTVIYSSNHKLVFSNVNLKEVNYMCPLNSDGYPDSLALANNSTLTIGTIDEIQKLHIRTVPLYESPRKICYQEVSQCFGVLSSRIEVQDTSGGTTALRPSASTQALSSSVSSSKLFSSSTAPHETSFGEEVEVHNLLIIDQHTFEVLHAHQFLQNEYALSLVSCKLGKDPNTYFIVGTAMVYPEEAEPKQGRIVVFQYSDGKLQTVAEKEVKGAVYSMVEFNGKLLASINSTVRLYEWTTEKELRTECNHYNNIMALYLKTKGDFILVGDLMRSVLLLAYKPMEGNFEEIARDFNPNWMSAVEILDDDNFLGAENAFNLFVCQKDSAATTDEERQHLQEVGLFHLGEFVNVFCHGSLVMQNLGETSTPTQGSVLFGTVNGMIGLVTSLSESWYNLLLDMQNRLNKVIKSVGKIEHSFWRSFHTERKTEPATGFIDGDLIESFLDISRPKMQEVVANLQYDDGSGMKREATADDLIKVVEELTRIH
Measured DC50, listed per entry for reference.
# output: number + unit

MOLECULE: O=C1CCC(N2Cc3cc(C[C@H]4CCCC[C@@H]4NC4CCOCC4)ccc3C2=O)C(=O)N1 (stereo partly shown) [Example 74]
TESTED_TARGET: IKZF2 (Homo sapiens, UniProt Q96SW2+Q9UKS7)
DC50: 0.004 µM

MOLECULE: O=C1CCC(N2Cc3cc(C[C@H]4CCCC[C@@H]4NC4COc5ccccc5C4)ccc3C2=O)C(=O)N1 (stereo partly shown) [Example 143]
TESTED_TARGET: IKZF2 (Homo sapiens, UniProt Q96SW2+Q9UKS7)
DC50: 0.033 µM

MOLECULE: CC(N[C@H]1CCCC[C@@H]1Cc1ccc2c(c1)CN(C1CCC(=O)NC1=O)C2=O)C(F)F (stereo partly shown) [Example 130]
TESTED_TARGET: IKZF2 (Homo sapiens, UniProt Q96SW2+Q9UKS7)
DC50: 0.148 µM

Now consider the entry below.
Input line: Give the value of DC50 reported for the following: O=C1CCC(N2Cc3cc(C[C@H]4CCCC[C@@H]4NC4CC5(CC5)C4)ccc3C2=O)C(=O)N1 (stereo partly shown) [Example 79]
Output line: 0.005 µM
